# Test system: P. aeruginosa ATCC-10145
# test.details: MIC against P. aeruginosa ATCC-10145 by the plate diluted method
# Assay type: cell-based
# test.parameters: Pseudomonas aeruginosa, ATCC10145; P. aeruginosa ATCC-10145; 1×10^6 cells/ml; read-out: MIC

| compound | assayed.system | measurement.unit | MIC |
| --- | --- | --- | --- |
| Nc1nc(/C(=N/OCc2cc(=O)c(O)cn2O)C(=O)N[C@@H]2C(=O)N3C(C(=O)[O-])=C(CSc4cc[n+](CC(=O)O)cc4)SC[C@H]23)ns1 [No. 24] | P. aeruginosa ATCC-10145 | µg/mL | 0.1 |
| Cc1nnc(SCC2=C(C(=O)O)N3C(=O)[C@@H](NC(=O)/C(=N\OC(C(=O)O)c4ccc(O)c(O)c4)c4csc(N)n4)[C@H]3CS2)s1 (stereo partly shown) [No. 6] | P. aeruginosa ATCC-10145 | µg/mL | 0.2 |
| CC(C)(O/N=C(\C(=O)N[C@@H]1C(=O)N2C(C(=O)[O-])=C(CSc3cc[n+](Cc4cc(=O)c(O)c[nH]4)cc3)CS[C@H]12)c1csc(N)n1)C(=O)O [No. 14] | P. aeruginosa ATCC-10145 | µg/mL | 0.2 |
| CC(C)(O/N=C(\C(=O)N[C@@H]1C(=O)N2C(C(=O)[O-])=C(CSc3cc[n+](CC(=O)c4ccc(O)c(O)c4)cc3)SC[C@H]12)c1csc(N)n1)C(=O)O [No. 3] | P. aeruginosa ATCC-10145 | µg/mL | 0.05 |
